Molecular target: T1, EsCas13d, nuclease-dead (Eubacterium siraeum, UniProt B0MS50, R295A;H300A;R849A;H854A)
T1 sequence: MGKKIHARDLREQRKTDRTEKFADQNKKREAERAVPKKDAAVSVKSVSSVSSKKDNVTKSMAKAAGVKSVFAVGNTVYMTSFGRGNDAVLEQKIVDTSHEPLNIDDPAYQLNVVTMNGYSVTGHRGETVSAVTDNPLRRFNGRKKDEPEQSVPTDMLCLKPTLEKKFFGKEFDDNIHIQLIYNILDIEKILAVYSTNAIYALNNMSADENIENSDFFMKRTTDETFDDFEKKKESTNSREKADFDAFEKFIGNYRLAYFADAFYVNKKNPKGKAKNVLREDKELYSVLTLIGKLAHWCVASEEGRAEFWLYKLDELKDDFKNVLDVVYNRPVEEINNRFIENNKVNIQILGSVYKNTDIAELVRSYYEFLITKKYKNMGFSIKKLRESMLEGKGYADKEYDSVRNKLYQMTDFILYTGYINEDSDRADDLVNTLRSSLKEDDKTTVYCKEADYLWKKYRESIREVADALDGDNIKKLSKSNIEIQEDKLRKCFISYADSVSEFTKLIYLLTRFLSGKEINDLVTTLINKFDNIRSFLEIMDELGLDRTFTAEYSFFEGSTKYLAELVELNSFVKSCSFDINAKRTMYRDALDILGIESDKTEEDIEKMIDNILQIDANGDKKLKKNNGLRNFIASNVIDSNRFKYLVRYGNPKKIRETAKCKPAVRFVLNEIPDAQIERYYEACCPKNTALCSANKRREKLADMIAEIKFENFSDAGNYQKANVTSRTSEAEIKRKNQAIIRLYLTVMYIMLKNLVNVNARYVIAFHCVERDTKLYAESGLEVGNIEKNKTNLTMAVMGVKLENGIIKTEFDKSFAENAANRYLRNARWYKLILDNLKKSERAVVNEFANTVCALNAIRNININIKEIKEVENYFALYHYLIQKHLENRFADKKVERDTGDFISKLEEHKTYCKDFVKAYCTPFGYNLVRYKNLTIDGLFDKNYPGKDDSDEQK
Experiment: crRNA (strand 1, pre-loaded); Mg2+; 40 mM Tris-HCl pH 7.5, 150 mM NaCl, 6 mM MgCl2, 1 mM DTT, 0.1% Tween-20, 0.2 mg/ml BSA; 25 C; 10 min per concentration, then washed
Details: tags: His6-TwinStrep-SUMO cleaved; N-terminal SNAP kept (SNAP-Surface 488); label: 3' end held by stalled T7 RNA polymerase
PROPERTY NAME: pKd
pKd is a log-scale quantity: -log10 of the concentration expressed in molar.

Recorded pKd (binder target 3 insG 3' of 22,insA 3' of 2 (mixed) RNA 1: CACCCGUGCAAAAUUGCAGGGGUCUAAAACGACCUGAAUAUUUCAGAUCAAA RNA 2: GGGAAUGGAUCCACAUCUACGAAUUCGUUUGUUGAUCUGAAAUAUUCAGGUACUGCAGAUCGGAAGAGCACACGU ): 7.14

Query target 1 MT 5'PFS GUG 3'PFS ACG (mixed) RNA 1: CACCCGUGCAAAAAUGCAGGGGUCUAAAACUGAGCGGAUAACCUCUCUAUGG RNA 2: GGGAAUGGAUCCACAUCUACGAAUUCGUGCCAUAGAGAGGUUAUCCGCUCAACGAGAUCGGAAGAGCACACGU yields pKd of 7.81
